- Experiment notes: recombinant barcode read abundance after kanamycin selection (control-corrected) (log10(CPM+1)); higher = more efficient recombination; sequences stand for … in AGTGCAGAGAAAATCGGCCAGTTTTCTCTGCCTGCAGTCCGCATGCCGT…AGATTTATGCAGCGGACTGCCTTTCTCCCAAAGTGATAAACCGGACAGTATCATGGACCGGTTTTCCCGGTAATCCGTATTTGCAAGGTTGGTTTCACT; site = the 11-nt target
Cut-off 0.3 on recombinant barcode read abundance (log10), inclusive. At or above means Met; below means Not met.

- GTAATGACTTGGGTTCTAACCTGTTGCCT (site GAAATGACTAG): Met
- CCAGGACCTTGGGTTCTAACCTGTTGCCT (site CGAGGACCTAG): Not met
- GCGCCCTCTTGGGTTCTAACCTGTTGCCT (site GCGCCCTCTAG): Met
- CCGCCAGCTTGGGTTCTAACCTGTTGCCT (site CCGCCAGCTAG): Not met
- AACTTTCCTTGGGTTCTAACCTGTTGCAT (site AACTGTCCTAT): Not met

* * *

- Experiment notes: recombinant barcode read abundance after kanamycin selection (control-corrected) (log10(CPM+1)); higher = more efficient recombination; sequences stand for … in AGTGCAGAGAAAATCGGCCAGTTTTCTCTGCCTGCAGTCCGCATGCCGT…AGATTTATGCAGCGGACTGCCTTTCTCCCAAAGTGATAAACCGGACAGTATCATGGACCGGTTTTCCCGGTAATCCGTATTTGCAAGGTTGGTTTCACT; site = the 11-nt target
Cut-off 0.3 on recombinant barcode read abundance (log10), inclusive. At or above means Met; below means Not met.

- ACCTGACCTTGGGTTCTAACCTGTTGCCT (site ACCTGACCTAG): Met
- GACATCGCTTGGGTTCTAACCTGTTGCCT (site GACATCACTAG): Not met
- TGCTTACCTTGGGTTCTAACCTGTTGCCT (site AGCTTACCTAG): Not met
- AGCGCTTCTTGGGTTCTAACCTGTTGCCT (site ATCGCTTCTAG): Not met
- CACCGTCCTTGGGTTCTAACCTGTTGCAT (site CACCGTCCTAC): Not met
- CCGAAGACTTGGGTTCTAACCTGTTGCCT (site TCGAAGACTTG): Met
- CTCGTTGCTTGGGTTCTAACCTGTTGCCT (site GTCGTTGCTAG): Not met
- ACAGTGACTTGGGTTCTAACCTGTTGCCT (site ACAATGACTAG): Met
- AAGCGAACTTGGGTTCTAACCTGTTGCCT (site AAGCCAACTAG): Not met
- GAGTCGCCTTGGGTTCTAACCTGTTGCGG (site GAGTAGCCTCC): Not met
- ACTTTGTCTTGGGTTCTAACCTGTTGCCT (site ACTTTGTCTAG): Met
- CAAAAGGCTTGGGTTCTAACCTGTTGCCG (site CAAAAGGCTCG): Met
- ATCGGATCTTGGGTTCTAACCTGTTGCCT (site ATCGGAGCTAG): Not met
- AAGCTAACTTGGGTTCTAACCTGTTGCCT (site AAGCGAACTAG): Not met
- TTCGACGCTTGGGTTCTAACCTGTTGCCT (site TTCGACGCTAG): Met
- CATCGATCTTGGGTTCTAACCTGTTGCCT (site CATCTATCTAG): Not met
- ACCGATTCTTGGGTTCTAACCTGTTGCAT (site GCCGATTCTAG): Met
- CGCCTCACTTGGGTTCTAACCTGTTGCCT (site CGCCTCCCTAG): Not met
- CAGGAGACTTGGGTTCTAACCTGTTGCCT (site TAGGAGACTGG): Not met
- TCTGGCACTTGGGTTCTAACCTGTTGCCT (site TCTGGCACTAG): Not met
- CTAGGAGCTTGGGTTCTAACCTGTTGCTT (site CTAGGAGCTAA): Met

* * *

- Experiment notes: recombinant UMI read abundance after kanamycin selection (control-corrected) (log10(CPM+1)); higher = more efficient recombination; extreme values may be limits of the assay; sequences stand for … in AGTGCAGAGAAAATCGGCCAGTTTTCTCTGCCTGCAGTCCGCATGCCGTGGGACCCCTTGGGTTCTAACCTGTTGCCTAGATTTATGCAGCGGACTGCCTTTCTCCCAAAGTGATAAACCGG…AGGTTGGTTTCACT; site = the 11-nt donor
Measurement name: recombinant UMI read abundance (log10)

* TAGAATACATGGACCGGTTTTCCCGGTAATCCGTATTTGGA (site TAGAATACTTC) | 1.99
* CGGGAACCATGGACCGGTTTTCCCGGTAATCCGTATTTGAA (site CGGGAACCTGT) | 0
* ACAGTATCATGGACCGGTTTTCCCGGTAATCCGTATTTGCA (site CCAGTGTCTTG) | 1.8
* GCAGTATCATGGACCGGTTTTCCCGGTAATCCGTATTTGCT (site ACAGTATCTTG) | 0
* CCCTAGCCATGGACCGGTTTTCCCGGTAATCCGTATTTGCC (site CCCTAGCCTGT) | 0

* * *

- Experiment notes: recombinant barcode read abundance after kanamycin selection (control-corrected) (log10(CPM+1)); higher = more efficient recombination; sequences stand for … in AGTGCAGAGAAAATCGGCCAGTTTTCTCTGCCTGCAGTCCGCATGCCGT…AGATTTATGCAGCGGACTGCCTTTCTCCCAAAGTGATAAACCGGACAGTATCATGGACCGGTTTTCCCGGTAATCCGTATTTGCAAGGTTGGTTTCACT; site = the 11-nt target
Measurement name: recombinant barcode read abundance (log10)

* TCCTAACCTTGGGTTCTAACCTGTTGCCT (site TCCTAATCTAT) | 0.0117
* ACTTAGTCTTGGGTTCTAACCTGTTGCTC (site TGCCCCGCTAG) | 0.0305
* CCTGGTCCTTGGGTTCTAACCTGTTGCCT (site CCTGGTCCTAG) | 1.56
* GTTCAGCCTTGGGTTCTAACCTGTTGCCT (site GTTCAGCCTAG) | 0.611
* CGAAATGCTTGGGTTCTAACCTGTTGCCT (site CGGAATGCTAG) | 0.035
* TGGTGCGCTTGGGTTCTAACCTGTTGCCT (site TGGTACGCTAG) | 0.33
* TATCGGCCTTGGGTTCTAACCTGTTGCCT (site TAACGGCCTAG) | 0.0814
* GATGCACCTTGGGTTCTAACCTGTTGCGG (site GATGCACCTCC) | 2.36
* ACGGCTCCTTGGGTTCTAACCTGTTGCTG (site ACGACTCCTCA) | 0.0439
* AGGTCACCTTGGGTTCTAACCTGTTGCCT (site AGGTCACCTAT) | 0.221
* CCAAAGACTTGGGTTCTAACCTGTTGCTT (site GGGTCACCTCC) | 0
* TCGGATACTTGGGTTCTAACCTGTTGCGT (site TCGGATACTAA) | 0.0447
* CTAATAGCTTGGGTTCTAACCTGTTGCCT (site CTAATGGCTAG) | 0.0554
* GATTCTCCTTGGGTTCTAACCTGTTGCCT (site GATTCTCCTAA) | 0.0949
* ACAGTAGCTTGGGTTCTAACCTGTTGCGG (site ACAGTAGCTCG) | 0.248
* TAACGACCTTGGGTTCTAACCTGTTGCCT (site GAACGACCTAG) | 0.0956
* TAGCGCACTTGGGTTCTAACCTGTTGCGG (site TAGCGCACTCC) | 1.33
* AACTCATCTTGGGTTCTAACCTGTTGCCT (site AACTTATCTAG) | 0.0223
* CGTAAATCTTGGGTTCTAACCTGTTGCCT (site CGCAAATCTAG) | 0.0232
* CTCCAGACTTGGGTTCTAACCTGTTGCAG (site CTCCAGACTCT) | 1.87
* AAGTCCTCTTGGGTTCTAACCTGTTGCTT (site AAGTCCTCTAA) | 1.48

* * *

Let's look at some sequences and their measured recombinant UMI read abundance (log10).
- Experiment notes: recombinant UMI read abundance after kanamycin selection (control-corrected) (log10(CPM+1)); higher = more efficient recombination; extreme values may be limits of the assay; sequences stand for … in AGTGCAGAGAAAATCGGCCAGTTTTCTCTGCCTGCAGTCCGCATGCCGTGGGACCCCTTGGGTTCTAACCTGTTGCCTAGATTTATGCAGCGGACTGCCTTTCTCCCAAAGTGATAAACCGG…AGGTTGGTTTCACT; site = the 11-nt donor
Measurement name: recombinant UMI read abundance (log10)

- GGACCACCATGGACCGGTTTTCCCGGTAATCCGTATTTGCG (site GGACCACCTCG): 0.0308
- TTAGTTACATGGACCGGTTTTCCCGGTAATCCGTATTTGGC (site TTAGTTACTGC): 0.857
- GGATATACATGGACCGGTTTTCCCGGTAATCCGTATTTGCC (site GGATATACTGG): 1.81
- ATATCTGCATGGACCGGTTTTCCCGGTAATCCGTATTTGTA (site ATATCTGCTTA): 2
- CATCTCTCATGGACCGGTTTTCCCGGTAATCCGTATTTGTA (site CATCTCTCTTA): 2.66
- TGCCGAACATGGACCGGTTTTCCCGGTAATCCGTATTTGAT (site TGCCGAACTAT): 1.59
- CTCTACACATGGACCGGTTTTCCCGGTAATCCGTATTTGAT (site CTCTACACTAC): 0.0649
- AGCCGTACATGGACCGGTTTTCCCGGTAATCCGTATTTGCT (site TGCCGTACTAG): 1.18
- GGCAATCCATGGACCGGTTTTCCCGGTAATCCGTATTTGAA (site GGCAAACCTTT): 0
- TACTCGACATGGACCGGTTTTCCCGGTAATCCGTATTTGCT (site TACTTGACTAG): 1.01
- TTACTAACATGGACCGGTTTTCCCGGTAATCCGTATTTGGA (site CTACTAACTTC): 0.457
- ATCCATACATGGACCGGTTTTCCCGGTAATCCGTATTTGAC (site ATCCATACTGT): 1.77
- TTTTTGGCATGGACCGGTTTTCCCGGTAATCCGTATTTGTG (site TGTTTGGCTCA): 0.0296
- AGTCTTTCATGGACCGGTTTTCCCGGTAATCCGTATTTGAC (site AGCCTTTCTGT): 0.743
- TAAAGCCCATGGACCGGTTTTCCCGGTAATCCGTATTTGTA (site TAAAGCCCTTA): 1.58
- TGTACATCATGGACCGGTTTTCCCGGTAATCCGTATTTGAC (site TGTACACCTGT): 0
- CCCGACACATGGACCGGTTTTCCCGGTAATCCGTATTTGTA (site CCCAACACTTA): 0.221
- CGCCGTACATGGACCGGTTTTCCCGGTAATCCGTATTTGCA (site CGCCGTACTGG): 0.685
